Assay: yeast display, Sf9 membrane polyspecificity reagent, FACS + sequencing; frameworks hold sequencing errors
recorded_endpoint: polyreactivity (PSR sort gate)

{"seq_text": "QLQLVESGGGLVQAGGSLRLSCAASGRIFHSYTMGCYTQAPGKHRELVSAITWSCGSTYYADSVKGRLTISRDHAKNTVYFQMNSLKAEDTSVFYCNAKRRVFRLSVTSAFDYWGQGTQVTVSS", "polyreactivity (PSR sort gate)": "high polyreactivity"}
{"seq_text": "QVQLVESGGGLVQAGGSLRLSCAASGSIFFFYDMGWYRKATGKERELVAAISSSGTRTYYADSVKGRFTISRDNAKNTVYLQMNSLKPEDTAVYYCAVVYPSENYYRYDYWGQVTQVTVSS", "polyreactivity (PSR sort gate)": "high polyreactivity"}
{"seq_text": "QVQLVESGGGLVQAGGSLRLSCAASGITFYRYAMGWYRQAPGKERELVAAISSRGGRTYYADSVKGRFTISRDNAKNTVYLQMNSLKPEDTAVYYCAKGGKVGSTLEYDYWGQGTQVTVSS", "polyreactivity (PSR sort gate)": "high polyreactivity"}
{"seq_text": "QVQLVESGGGLDQAGGSLRLSCAASGRTFGRNAMGWYRQAPGKESELVAASSTRGGSTFYADSVKARFTISRDNAKNTVYLQMNSLKPEDTAVYYCAAAGTARWPRPTSGLLDYYYWGQVTQVTVSS", "polyreactivity (PSR sort gate)": "high polyreactivity"}
{"seq_text": "QVQLVESGGGLVQAGGRLRLSCAASGRTFAYYAMGWSRQAPGKERELVAAITRGGSTYYADSVKGRFTISRDNAKNTVYLQMNSLKPEDTAVYYCAAATSPYQDDYWGQGTQVTVSS", "polyreactivity (PSR sort gate)": "low polyreactivity"}

Exercise: State, in one line, measured polyreactivity (PSR sort gate) of HVQLVESGGGLVQAGGSLRLSCAASGFISVRNGMGWYRQAPGKERELVAAITGSGGSTYYADSVKGRFTISRDNAKNTVYLQMNSLKPEDTAVYYCARTYTVSRKRMGYWGQGTQVTVSS
Key: high polyreactivity

Exercise: State, in one line, measured polyreactivity (PSR sort gate) of QVQLVESGGGLVQAGGSLRLSCAASGGIFRYYAMGLYRQAPGKERELVASIRRSGGRTYYADSVKGRFTISRDNAKYTVYFQMNSLKPEDTAVYYCNADRLIVTMNSWGQGTQVTVSS
Key: low polyreactivity

Exercise: State, in one line, measured polyreactivity (PSR sort gate) of QVQLVESGGGLVQAGGSLRLSCAASGSIFLIYAMGWYRQAPGKERELVAAINYSGVRTYYADSEKGRFTISRDYAKNTLYLPMNSLKPEETAVYYCAPDATSYSYRYNYWGQGTQVTVSS
Key: high polyreactivity

Exercise: State, in one line, measured polyreactivity (PSR sort gate) of QVQLVESGGGLVQAGGSLRLSCASSGRIFRWYAMGWYRQAPGKERELVAAISRSGTSTYYADSVKGRFTISRDNAKNTVFLQMNSLKPEDTAVYYCNTDVQVYSYNYWGQGTQVTVSS
Key: low polyreactivity

Exercise: State, in one line, measured polyreactivity (PSR sort gate) of QVQLVESGGGLVQAGGSLRLSCAASGSIFGAYAMGWYRQAPGKERELVAAITWRGGSTYYADSVKGRFTISRDNAKNTVYLQMNSLKPEDTAVYYCAARYLRPDGDALTRYGYWGQGTQVTVSS
Key: high polyreactivity

Exercise: State, in one line, measured polyreactivity (PSR sort gate) of QVQLVESGGGLVQAGGSLRLSCAASGSTFDQNTMGWYREAPGKERELVASITGGDSTNYADSVKGRFTISRDNAKNTVYLQMNSLKPEDTAVYYCAADKLYQPGIGDDYWGQGTQVTVSS
Key: low polyreactivity

###

Assay: yeast display, Sf9 membrane polyspecificity reagent, FACS + sequencing; frameworks hold sequencing errors
recorded_endpoint: polyreactivity (PSR sort gate)

Worked examples, 10 sequences total:
{"seq_text": "QVQLVESGGGLVHAGCSLRLSCAATGIIFAWYVMGWYRPAPGKERELVAAITQSGGSTFYADSVKGRFTISRDNAKNTVYLQMNSLKPEDTAVYYCNTEDFFNVPEMDSWGQGTQVTVSS", "assay_value": "low polyreactivity"}
{"seq_text": "QVQLVESGGGLVQAGGSLRLSCAASGRIFVRNTMGWYRQAPGKERELVAAINSGGSTYYADSVKGRFTISRDNENNTVYLQMNSLKPEDTAVYYCAGQFYLFYEYDYWGQGTQVTVSS", "assay_value": "high polyreactivity"}
{"seq_text": "QVQLVESVGGLVQAGASLRLSCAASGFTIDRYAMGWYIQAPAKERELVAAISGSGGRTYYADSVKGRFTISRDNAKNTVYLQMNSLKPEVTAVYYCAAVYLVTRGARYDYCGQGTQVTVSS", "assay_value": "high polyreactivity"}
{"seq_text": "QVQLVESGGGLVQAGGSLRLSCATSGFTFGWNYMGWYRQAPGKERELVAAITWSGGSTYYADSVKGRFTISRDNAKNTVYLQMNSLKPEDTAVYYCAAVVSDYVWRYEYWGQGSQVTVSS", "assay_value": "low polyreactivity"}
{"seq_text": "QVQLVESGGGLVQAGGSLRLSCAASGSTFGRYAKGWYRQAPGKERQLVAAISSSGVTTYYADSVKGRFTISRDNAKNSVYLQINSLKPEDTAVYYCSQTYKYHRWITKYGYWGQGTQVTVSS", "assay_value": "high polyreactivity"}
{"seq_text": "QVQLVESGGGVVQAGGSLRLSCAASGSTLARYAMGWYRQSPGKERELVAAISSDGRTYYADSVKGRFTISRDNAKNTVYLQMNSLKPEDTAVYYCSAVGKPGVYQEGDYWGQGTQVTVSS", "assay_value": "high polyreactivity"}
{"seq_text": "QVQLVESGGGLVQAGVSLRLSCAASASTFSIYAMGWYRHAPGKERELVAAIDSGGRTKYADSVKGRFTISRDNAKNPVYLQMNSLKPEDTAVYYWAAVFRGWWLYDYWGLGTQVTVSS", "assay_value": "low polyreactivity"}
{"seq_text": "QVKLVESGGGLVQAGGSLRLSCAESGRIFHHYAMGWYRQAPGKERELVAAITGGGSTYYADSVKVRFTISRYNAKITVYLQMNSLKPEDTAVYYCAAPPFGYYEVGYDSWGQGSQVTVSS", "assay_value": "low polyreactivity"}
{"seq_text": "QVQLVESGGGSLRLSCAASGLTFGGYTMGWYRQAPGKERELVAAISSSDSTNYADSVKGRFTISRDNAKNTVYLQMNSLKPEDTAVYYCAADSGQWSRYSSFGDEGDSWGQGTQVTVSS", "assay_value": "low polyreactivity"}
{"seq_text": "QVQLVESGGGLVQAGGSLRLSCAASGLTFPWYAMGWYRQAPGKERELVAGISWSGGSTYYADSVKGRFTNSRDNAKNTVYLQMNSLKPEDTAVYYCKLVKTTSTLGKRRYDYWGQGTQVTVSS", "assay_value": "high polyreactivity"}

Here's the next entry for you.
Exercise: State, in one line, measured polyreactivity (PSR sort gate) of QVQLVESGGGLVQAGGSLRLSCAASGSTFDSYAMGWYRQAPGKERELVAVINSGGSTNYADSVKGRFTISRDNAKNTVYLLMNSLKPEDTAVYYCSAEERYRWHVVGWGYWYDYWGQGTQVTVSS
Key: low polyreactivity

###

Assay: yeast display, Sf9 membrane polyspecificity reagent, FACS + sequencing; frameworks hold sequencing errors
recorded_endpoint: polyreactivity (PSR sort gate)

{"seq_text": "QVQLVESGGGLVQAGGSLRLSCAASGSTFYWYAMGGYRQAPGKERELVAAISGSGGRTYYADSVKGRFTISRDNAKNTVYLQMYSLKPEDTAGYYCAADTKFYNYYYWGQGTQVTVSS", "polyreactivity (PSR sort gate)": "high polyreactivity"}
{"seq_text": "QVQLVESGGGLVQAGGSLRLSCAASGSNFNYYVMGGYRQAPGKERELVAAISRSGTSTYYADSVKGRFTISRDNAKNTVYLQMNRLKPEDSSVYYCAARVSHKYRTYYYWGQGTQVTVSS", "polyreactivity (PSR sort gate)": "high polyreactivity"}
{"seq_text": "QVQLVESGGGLEQAGGSIRLNCAASGSTFRYNAMGWYRQARGKERELVAAITWSGGSTYFADSVKGRFTISRDNAKHNVYLQMNSLKAEDTAVYYCAKVYFWGALSPYKYDEDYWGQGTQVTVSS", "polyreactivity (PSR sort gate)": "low polyreactivity"}
{"seq_text": "QVQLVESGGGLVQAGGSLRLSCASSGSTFKYYAMGWYRQAPGKERELVAAISSGGSTYYADSVKGRFTISRDNAKNTVYLLMNSLKPEDTAVYDCAARGYYGNFSGSGYWGQGTQVTVSS", "polyreactivity (PSR sort gate)": "high polyreactivity"}

Here's the next entry for you.
Exercise: State, in one line, measured polyreactivity (PSR sort gate) of QVQLVESGGGLVQAGGSLRLSCAASGRIFDLYTMGWYRQAPGKERELVAAIRWSDGSTYYADSVKGRFTISRDNAKNTVYLQMNSLKPEDTAVYYCNRDPPRVLWYYLLSDSKLDSWGQGTQVTVSS
Key: low polyreactivity

Cited source: the nanobody polyreactivity screen of Harvey et al. (2022)
